test system: Rattus norvegicus; assay: Iron clearing effect in noniron-overloaded bile duct cannulated Sprague-Dawley rat assessed as maximum iron clearance time at 300 umol/kg, po; assay type: functional

compound | output-unit | Time
C[C@]1(C(=O)[O-])CSC(c2ncc(O)cc2O)=N1.[Na+] | h | 6
COCCOCCOc1ccc(C2=N[C@@](C)(C(=O)[O-])CS2)c(O)c1.[Na+] | h | 12
C[C@]1(C(=O)[O-])CSC(c2ccc(O)cc2O)=N1.[Na+] [DEFERITRIN SODIUM] | h | 3
COCCOCCOc1ccnc(C2=N[C@@](C)(C(=O)[O-])CS2)c1O.[Na+] | h | 6
COCCOCCOc1cccc(C2=N[C@@](C)(C(=O)[O-])CS2)c1O.[Na+] | h | 6
COCCOCCOc1cnc(C2=N[C@@](C)(C(=O)[O-])CS2)c(O)c1.[Na+] | h | 6

----------
test system: Rattus norvegicus; format: toxicity, organism-based; conditions: in vivo, po, 168 h

compound | measured-target | Activity
COCCOCCOc1cnc(C2=N[C@@](C)(C(=O)[O-])CS2)c(O)c1.[Na+] | Rattus norvegicus | Non-toxic
C[C@]1(C(=O)[O-])CSC(c2ncc(O)cc2O)=N1.[Na+] | Rattus norvegicus | Non-toxic
COCCOCCOc1ccc(C2=N[C@@](C)(C(=O)[O-])CS2)c(O)c1.[Na+] | Rattus norvegicus | Non-toxic
COCCOCCOc1ccnc(C2=N[C@@](C)(C(=O)[O-])CS2)c1O.[Na+] | Rattus norvegicus | Non-toxic
C[C@]1(C(=O)[O-])CSC(c2ccc(O)cc2O)=N1.[Na+] [DEFERITRIN SODIUM] | Rattus norvegicus | Non-toxic
C[C@]1(C(=O)[O-])CSC(c2ncccc2O)=N1.[Na+] [DESFERRITHIOCIN SODIUM] | Rattus norvegicus | Toxic

Value source: ChEMBL document CHEMBL2163198
